Hey, just so you know, these numbers are from PubChem BioAssay AID602252.

- System under test: Golgi-associated PDZ and coiled-coil motif-containing protein (Homo sapiens) (UniProt Q9HD26)
- Measurement notes: untagged CAL PDZ binding inhibitors, primary screen, biochemical, fluorescence polarization, HTS (AID 602252)
- Conditions used: purified CAL PDZ, TMR-peptide fluorescence polarization, 1 h; at 24.9 µM
Among all 300,000 compounds or so, about 2,700 (0.9%) were called active.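 How the source made its calls: active means mean inhibition of at least 30% with at least half of replicates also reaching 30%; inconclusive means no clear call, values can overlap the other calls; inactive means the rest.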 The sample holds actives, similar compounds and a random draw of the others, so the mix is not that of the screen.
Outcome codes: active, inactive

Compound: CCOc1ccc(NC(=O)C2CC(=O)N=C(N)S2)cc1 (stereo unspecified)
Cat: inactive
--
Compound: O=C1CN(C(=O)COC(=O)/C=C/c2ccc(F)cc2)c2ccccc2N1
Cat: inactive
--
Compound: COc1ccc2c(CC(=O)Nc3nnc(C4CC4)s3)coc2c1
Cat: inactive
--
Compound: Cc1cc(=O)oc2cc(OCC(=O)Nc3nnc(C4CC4)s3)ccc12
Cat: active
--
Compound: O=C(Nc1ccc2ccccc2c1[N+](=O)[O-])c1ccccc1
Cat: inactive
--
Compound: CCOc1ccc(N/C(N)=N/c2nc(C)c(C)c(=O)[nH]2)cc1
Cat: active
